# test: protein stability index of a GFP-peptide fusion (GPS, HEK-293T) (PSI 1-6); higher = more stable;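 further: 24-mer peptide tiles fused after GFP, lentivirally expressed, FACS-sorted into six equal bins by GFP/DsRed ratio, decoded by Illumina sequencing, PSI is the read-weighted mean bin number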
# settings: treatment: DMSO; c terminus: a fixed tail appended
Outcome: true for protein stability index of at least 3; false for anything lower.

Look over these answered cases.
seq text | label value
DPFDEIILFSLPPALDWDSVHVPG [PTPN9] | false
REPVTKAEMLGSVVGNWQYFFPVI [MAGEA3] | false
HLQLLGAVCMFLASKLKETSPLTA [CCND2] | false
EPGKQERDVYLPAGKWRSYKGELF [MYORG] | true
GPLAQPLTLQVLVAGNPQDTRLRY [ADAMTS4] | false

Exam item: Has EDDIRPDIKDDIYDPTYKDKEGPS [SCD] a recorded protein stability index greater than or equal to 3?
Marked response: true

Exam item: State whether the measured protein stability index reaches 3, counting equality as reaching it, for ARRRQSAGPWPRPKGSLSMGPAPR [RASAL3]
Marked response: true

Exam item: Dear colleague, could you confirm whether RKSMLDAGPDSWGSDAEQSTSGQP [LCOR] has protein stability index at or above 3?
Marked response: true

Exam item: Textbook exercise: given the entry QTRMAVSLTAAETLALQGTQGQEK [ZNF232] , state whether its protein stability index is greater than or equal to 3.
Marked response: true

Exam item: Quick check, protein stability index >= 3? VAVALRKPDGSRHQDVPSQDDSKP [AASDHPPT]
Marked response: true

Exam item: Could you please find out whether PLRERARKLSQGILIIRFEMPYNI [YJU2B] has protein stability index that meets 3 or exceeds it?
Marked response: false

Exam item: Tell me whether protein stability index is at least 3 here: IAILLYKSKPDRKRAESDSRKSSI [PTPRD]
Marked response: false

Exam item: Reported protein stability index at or above 3? SSQPQDNSQVHRETEDVDYGETDF [TMEM40]
Marked response: true

---

# test: protein stability index of a GFP-peptide fusion (GPS, HEK-293T) (PSI 1-6); higher = more stable
# settings: treatment: DMSO; c terminus: a fixed tail appended
Would you kindly list protein stability index for each of these sequences?
Numbers only.

seq text | protein stability index
APIDWIEEYTTGMADCILVNSQFT [ALG2] | 2.64
QHKDQTAALPLAAEETANLPPSPP [MAP2] | 5.49
AAEEPGVRGLLASLFAFKSFRENW [C2CD2L] | 2.44
SNNHHLMLEASEWATIEGLVELLQ [ZBED1] | 2.66
GCRTTHSNQEVLQSCLLVIFATKP [PYCR3] | 2.64
CFKSVAKTPYDTSRRQEKSAGDAD [ELOA2] | 4.96
LPEAPPKKFLTLGSKFRYSGRTQA [EPB41L3] | 3
DLIDRGWRRSGKYVYKPVMNQTCC [ATE1] | 2.26
FIVGMVGNATLLRIIYQNKCMRNG [EDNRA] | 2.98
HSLDLNISEKLTLLPTLYEIHSKT [RNF180] | 2.34

Lab note: each sequence below needs its protein stability index filled in.
1. DYGVDPSQFSGTLMRTCERLVKEG [PPTC7]
2. LEVEREAEKKREAKQRAKEAQERE [LRRC59]
3. LDREIRLQRLSHSGSRVRVGFRLC [SCNN1D]

Marked response:
1: 3.72; 2: 5.45; 3: 2.39

This collection of values is drawn from the supplement of paper PMC10567573.
